Origin of the recorded values: the supplement of paper PMC7125110

B1: glmS ribozyme (parent)
chain: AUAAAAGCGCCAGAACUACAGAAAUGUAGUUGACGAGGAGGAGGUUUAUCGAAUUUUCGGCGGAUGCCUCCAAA

variants of: B1; assay: self-cleavage kobs at 2500 uM GlcN6P; higher = faster cleavage; RNA array; details: with glucosamine-6-phosphate
Variants at the floor of the assay were thinned out.
Here the recorded self-cleavage kobs at 2500 uM GlcN6P is given for each entry.

# annotated cases, reported self-cleavage kobs at 2500 uM GlcN6P shown
{"Variant spec": "U30A G32C A39G", "Value kind": "self-cleavage kobs at 2500 uM GlcN6P", "Result": "9.38e-05 s⁻¹"}
{"Variant spec": "A36G G63A", "Value kind": "self-cleavage kobs at 2500 uM GlcN6P", "Result": "< 1e-05 s⁻¹"}
{"Variant spec": "A42G A53G", "Value kind": "self-cleavage kobs at 2500 uM GlcN6P", "Result": "0.0414 s⁻¹"}

Give recorded self-cleavage kobs at 2500 uM GlcN6P. G13U G32A 0.00124 s⁻¹

Give recorded self-cleavage kobs at 2500 uM GlcN6P. A42U U46A 7.32e-05 s⁻¹
